assay: Transition midpoint (Tm) of dAbs, thermal stability (DSC); assay type: physicochemical
MEASURED_PROPERTY: Tm (° C.) (°C)
Numbers only, in °C.

# lookup: Tm (° C.) of DOM2: domain antibody (single variable domain), Vh framework, SEQ ID NO: 2 (protein, Amino acid sequence identified using molecular biology techniques.) VHH: EVQLLESGGGLVQPGGSLRLSCAASGFTFRNFGMGWVRQAPGKGLEWVSWIISSGTETYYADSVKGRFTISRDNSKNTLYLQMNSLRAEDTAVYYCAKSLGRFDYWGQGTLVTVSS
55.9
